// reported Activity per item
# System: SK-MEL-2
# MEASUREMENT_PROTOCOL: Antiproliferative activity against human SK-MEL-2 cells assessed as cell death at 20 ug/ml after 3 days by sulforhodamine B assay relative to control
# Assay type: functional

- COc1cc(O)c(-c2c(C)cc(OC)c3c(OC)cccc23)c2c1[C@@H](C)N[C@@H](C)C2: >50%
- COc1cc(O)cc2cc(CO)nc(C)c12: <50%
- Cc1cc(O[C@@H]2O[C@H](CO[C@@H]3OC[C@](O)(CO)[C@H]3O)[C@@H](O)[C@H](O)[C@H]2O)c2c(O)cccc2c1: <50%

Next compound, please.
Param item = "COc1cc(O[C@@H]2O[C@H](CO)[C@@H](O)[C@H](O)[C@H]2O)cc2cc(CO)nc(C)c12" ; retrieve measured Activity. <50%

* * *

# Test system: SK-MEL-2
# MEASUREMENT_PROTOCOL: Antiproliferative activity against human SK-MEL-2 cells assessed as cell death at 20 ug/ml after 3 days by sulforhodamine B assay relative to control
# Type: functional
// reported Activity per item

These recorded examples may help you get a feel for the data.
* COc1cc(O)ccc1O[C@@H]1O[C@H](COC(=O)c2cc(OC)c(O)c(OC)c2)[C@@H](O)[C@H](O)[C@H]1O | <50%
* COc1cc([C@H]2OC[C@H]3[C@@H]2CO[C@H]3c2cc(OC)c(O[C@@H]3O[C@H](CO)[C@@H](O)[C@H](O)[C@H]3O)c(OC)c2)cc(OC)c1O | <50%

Next molecule, please.
Param item = "Cc1cc(O)c2c(c1)[C@H](O[C@@H]1O[C@H](CO[C@@H]3O[C@H](CO)[C@@H](O)[C@H](O)[C@H]3O)[C@@H](O)[C@H](O)[C@H]1O)CCC2=O" ; retrieve measured Activity. <50%
